Biological target: constitutively active mutant human 5HT2C receptor AP-1 (Homo sapiens, UniProt P28335, S310K)
Sequence (P28335 33-458 S310K): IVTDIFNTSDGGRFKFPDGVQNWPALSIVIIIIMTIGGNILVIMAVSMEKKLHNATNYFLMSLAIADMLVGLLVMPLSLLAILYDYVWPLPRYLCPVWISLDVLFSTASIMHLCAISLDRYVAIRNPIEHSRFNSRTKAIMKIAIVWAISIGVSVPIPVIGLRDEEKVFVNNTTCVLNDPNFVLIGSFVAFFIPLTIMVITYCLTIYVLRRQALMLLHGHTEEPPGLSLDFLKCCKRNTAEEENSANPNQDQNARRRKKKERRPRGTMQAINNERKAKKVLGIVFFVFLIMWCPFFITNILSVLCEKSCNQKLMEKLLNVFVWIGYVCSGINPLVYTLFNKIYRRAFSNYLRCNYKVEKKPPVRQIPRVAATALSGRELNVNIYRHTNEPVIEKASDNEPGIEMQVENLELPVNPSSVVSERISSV
Assay: [35S]GTPγS binding assay, constitutively active mutant human 5HT2C receptor AP-1
observable: pIC50
Numbers only, as −log10 of the molar value.

{"columns": ["compound", "pIC50"],
 "data": [
  ["CSc1ccc2c(c1)C(N1CCN(C)CC1)Cc1ccccc1S2 (centres unmarked) [Methiothepin]", 7.69]
]}

Alright, here's another compound for you.
Endpoint output: pIC50 of "Clc1ccc2c(c1)N=C(N1CCNCC1)c1ccccc1N2" . Value?
7.67
